Every entry's value here was drawn from paper PMC4414724.

Assign in vitro v rel to each entry below.
molecular target: UniProt P06757; assay: Oxidation of alcohols by isolated rat liver alcohol dehydrogenase; settings: calculated from kinetic constants with Michaelis-Menten equation for 5 mM alcohol
Answers are plain numbers.

Below, 3 compounds whose answers are already recorded.
INSERT INTO assay_data (compound, value_observed) VALUES
  ('CCC(C)O (stereo not shown)', 0.14),
  ('OC1CCCCC1', 0.90),
  ('CCO', 0.88);

Batch of 6 compounds: report in vitro v rel for each.
1. CC(C)O
2. CCCO
3. CCC(O)CC
4. [2H]C([2H])([2H])C([2H])(O)C([2H])([2H])[2H]
5. CCCCO
6. OCCCO

Response given:
0.049
0.91
0.35
0.011
1.3
0.13

Provide in vitro v rel for all items below, preserving their order.
1. CC(C)CCO
2. CC(C)CO
3. CC(O)CCO (stereo not shown)
4. OC1CCCC1

Response given:
1: 0.53; 2: 0.77; 3: 0.44; 4: 0.68

---

settings: rat, in vivo
result type: in vivo rate of elimination
Record the result as a number with its unit.

In the examples that follow, each entry is paired with its recorded in vivo rate of elimination.
INSERT INTO results (compound, result_type, value_observed) VALUES
  ('CCCCO', 'in vivo rate of elimination', '3.2 ± 0.4 mmol/kg/h'),
  ('CCO', 'in vivo rate of elimination', '7.9 ± 1.0 mmol/kg/h'),
  ('CC(C)CO', 'in vivo rate of elimination', '3.8 ± 0.5 mmol/kg/h');

Provide in vivo rate of elimination for all items below, preserving their order.
1. CCC(C)O (centres unmarked)
2. CCCO

Response given:
2.5 ± 0.4 mmol/kg/h
5.3 ± 0.5 mmol/kg/h

---

target: rat liver alcohol dehydrogenase (Rattus norvegicus, UniProt P06757); test: Oxidation of alcohols by isolated rat liver alcohol dehydrogenase
Sequence (P06757 2-376 limits assumed): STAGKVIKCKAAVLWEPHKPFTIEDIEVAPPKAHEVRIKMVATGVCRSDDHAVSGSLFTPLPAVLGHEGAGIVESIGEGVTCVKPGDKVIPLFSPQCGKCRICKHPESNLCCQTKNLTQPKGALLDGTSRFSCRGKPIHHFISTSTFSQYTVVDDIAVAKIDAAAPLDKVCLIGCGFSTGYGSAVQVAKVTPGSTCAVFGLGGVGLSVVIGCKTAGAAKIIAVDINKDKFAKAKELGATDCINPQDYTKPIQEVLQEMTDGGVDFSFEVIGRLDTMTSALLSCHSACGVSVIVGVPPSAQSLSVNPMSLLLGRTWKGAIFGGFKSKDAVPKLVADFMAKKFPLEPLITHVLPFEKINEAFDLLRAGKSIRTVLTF
result type: pKi
One number for each entry, as −log10 of the molar value.

According to the records, this compound OCc1ccccc1 [Benzyl alcohol, benzyl alcohol] displays pKi of 1.57

---

Could you please report measured Km for the items listed next?
biological target: UniProt P06757; test: Oxidation of alcohols by isolated rat liver alcohol dehydrogenase; conditions: 83 mM potassium phosphate, 40 mM KCl, pH 7.3, 37 °C, 0.5 mM NAD+
Numbers only, in µM.

INSERT INTO results (compound, value_observed) VALUES
  ('CCCCO', 140),
  ('CC(C)CO', 190);

Provide the reported Km of each entry below, same order.
1. CCCO
2. CCO
3. OCCCO
4. CCC(C)O (stereo not drawn)

Response given:
1. 220
2. 640
3. 24000
4. 12000

---

settings: from inhibition by 1 mmole/kg 4-methylpyrazole
// label = t if %ADH (estimated percentage of elimination due to ADH) is not less than 70%, otherwise f

Challenge: Evaluate OC1CCCCC1 : %ADH (estimated percentage of elimination due to ADH) at minimum 70%?
Response given: t

Challenge: API: above_or_equal(metric=%ADH (estimated percentage of elimination due to ADH), cutoff=70%) for item CCC(O)CC
Response given: t

Challenge: Is reported %ADH (estimated percentage of elimination due to ADH) greater than or equal to 70% here: CCO
Response given: t
